- Test system: TK-10 renal
- ASSAY_PROCEDURE: NCI-60 one-dose screen, 48 h (100 = growth as untreated, 0 = no growth, -100 = all killed)
- ASSAY_SETUP: 10 µM unless noted
Compounds without any hit were thinned out: in the full panel of roughly 83,000, 20% have a hit.
ASSAY_ENDPOINT: growth (%)
Respond with the bare value in %.

[
  {
    "COMPOUND": "Nc1c2c(c(O)c3c1=C(CO)C=N3)=NCCS2",
    "growth, %": -79.4
  }
]

Problem: Bench note: what growth did `CC(C)CC(=O)Nc1n[nH]c2c1CN(C(=O)C1CCN(C)CC1)C2(C)C` show?
Solution: 49.2

Problem: What value of growth has been recorded for this entry: `CCNC(=O)Nc1nc2ccc(Oc3ccnc(C(=O)NC)c3)cc2s1`
Solution: 86.5

Problem: Could you share which growth value was measured for `Cn1cnc2c(F)c(Nc3ccc(Br)cc3F)c(C(=O)NOCCO)cc21` ?
Solution: 50.5

====

- System: K-562 leukemia
- ASSAY_PROCEDURE: NCI-60 one-dose screen, 48 h (100 = growth as untreated, 0 = no growth, -100 = all killed)
- ASSAY_SETUP: 10 µM unless noted
The panel holds about 83,000 compounds, 20% with a hit somewhere; the sample as a whole holds those more often.
Kind request: treat 20% as inclusive, so growth at 20% or higher is yes (1), anything lower is no (0).

Problem: Dear colleague, could you confirm whether COc1ccc(C2OC(c3cc(-c4cc5ccccc5o4)nn3-c3ccccc3)=NN2C(C)=O)cc1 (stereo not given) has growth at or above 20%?
Solution: yes (1)

Problem: Is the recorded value of growth equal to or greater than 20% for this molecule? `O=C(Nc1ccc(N=Nc2ccccc2)cc1)c1cccc2ccccc12`
Solution: yes (1)

====

- Tested on: RPMI-8226 leukemia
- ASSAY_PROCEDURE: NCI-60 one-dose screen, 48 h
- ASSAY_SETUP: 10 µM unless noted
- Experimental: Growth inhibition of the RPMI-8226 human tumor cell line is measured as a screen for anti-cancer activity. Cells are grown in 96 well plates and exposed to the test compound for 48 hours. Compounds are tested at a single concentration, which is 10^-5 M for most compounds. The reported endpoint is percent growth (GI% or GIPRCNT), where numbers from 0 - 100% represent growth inhibition, and numbers from -100% - 0 represent cell death. For example, a value of 40 represents 60% growth inhibition. […]
The panel holds about 83,000 compounds, 20% with a hit somewhere; the sample as a whole holds those more often. Activity calls are given as the source filed them. The calls were made as follows: active = growth percent below 10; inactive = the rest.
Log the outcome using a class from active, inactive

[
  {
    "MOLECULE": "COc1ccc(F)c(F)c1C(=O)c1cnc(NC2CCN(S(C)(=O)=O)CC2)nc1N",
    "CLASS": "active"
  },
  {
    "MOLECULE": "CO[C@H]1C[C@@H]2CC[C@@H](C)[C@@](O)(O2)C(=O)C(=O)N2CCCC[C@H]2C(=O)O[C@H]([C@H](C)C[C@@H]2CC[C@@H](OCCO)[C@H](OC)C2)CC(=O)[C@H](C)/C=C(\\C)[C@@H](O)[C@H](OC)C(=O)[C@H](C)C[C@H](C)\\C=C/C=C/C=C/1C",
    "CLASS": "inactive"
  },
  {
    "MOLECULE": "CC(C)c1ccc(/C=N/Nc2nc3ccccc3s2)cc1",
    "CLASS": "inactive"
  },
  {
    "MOLECULE": "COc1cccc(NC(=O)Nc2ccc(Nc3ncnc4sc5c(c34)CCN(C(=O)CCl)C5)cc2)c1",
    "CLASS": "inactive"
  },
  {
    "MOLECULE": "COc1ccc(-c2ccc3ncc4c(c3c2)n(-c2ccc(N3CCNCC3)c(C(F)(F)F)c2)c(=O)n4C)cn1",
    "CLASS": "active"
  }
]

Problem: Outcome logged for CC(=O)C1CC(C)CCC1C(C)C (stereo not given) in this assay:
Solution: inactive

Problem: Can you look up the reported call for COc1cc2c(cc1OCCCCCCN1CCN(c3ncnc4ccccc34)CC1)N=CC1CCCN1C2=O (stereo not given) for me?
Solution: active

====

- System: CAKI-1 renal
- ASSAY_PROCEDURE: NCI-60 one-dose screen, 48 h (100 = growth as untreated, 0 = no growth, -100 = all killed)
- ASSAY_SETUP: 10 µM unless noted
Compounds without any hit were thinned out: in the full panel of roughly 83,000, 20% have a hit.
The entries below are paired with their reported growth.
Write down the numeric answer in % and omit the unit.

Guide cases for growth, answers given:
[
  {
    "COMPOUND": "O=C(/C=C/c1ccc2c(c1)OCO2)c1c(O)c2ccccc2oc1=O",
    "growth / %": 95
  },
  {
    "COMPOUND": "CC(=O)C1=C(C)NC(SCc2nnc(-c3ccc(C)cc3)o2)=NC1c1ccc(F)cc1 (centres undefined)",
    "growth / %": 88
  },
  {
    "COMPOUND": "COc1cccc2cc(-c3nc(C4CCC(C(=O)O)CC4)n4ncnc(N)c34)[nH]c12 (centres undefined)",
    "growth / %": -22.7
  }
]

With those in mind, consider the next compound.
Problem: Item under review: `CCCS(=O)(=O)Nc1ccc(F)c(C(=O)c2c[nH]c3ncc(-c4ccc(Cl)cc4)cc23)c1F` . Reported growth?
Solution: 12.1

====

- Tested on: SNB-75 CNS
- ASSAY_PROCEDURE: NCI-60 one-dose screen, 48 h (100 = growth as untreated, 0 = no growth, -100 = all killed)
- ASSAY_SETUP: 10 µM unless noted
About 83,000 compounds went through this panel and 20% of them were active in at least one assay; those are over-represented in the sample as a whole.
ASSAY_ENDPOINT: growth (%)
Your answer is read as %, so omit the unit and give the number.

// worked examples, growth included
[
  {
    "MOLECULE": "COc1ccc(Cl)c(Nc2nc3ccccc3nc2NS(=O)(=O)c2cccc(NC(=O)C(C)(C)N)c2)c1",
    "UNIT_LABEL": "%",
    "growth": -20.2
  },
  {
    "MOLECULE": "C[C@]12O[C@H](C[C@]1(O)CO)n1c3ccccc3c3c4c(c5c6ccccc6n2c5c31)CNC4=O",
    "UNIT_LABEL": "%",
    "growth": -99.4
  },
  {
    "MOLECULE": "O=C1CC(c2ccc(Cl)cc2)c2ncn(-c3cccc(Cl)c3)c2N1 (configuration not stated)",
    "UNIT_LABEL": "%",
    "growth": 36.2
  }
]

Problem: Form field: reported growth of `CNC(=O)c1cc(Oc2ccc(NC(=O)Nc3ccc(Cl)c(C(F)(F)F)c3)c(F)c2)ccn1`
Solution: -68.8

Problem: What value of growth has been reported for the following molecule? COc1ccc(C2OC(c3cc(-c4cc5ccccc5o4)nn3-c3ccccc3)=NN2C(C)=O)cc1 (configuration not stated)
Solution: 87.5

Problem: Name the recorded growth for `O=C(Cn1c(=O)ccn(CCCCCCCCOc2ccc(Br)cc2)c1=O)Nc1ccc(Oc2ccc(Cl)cc2)cc1` .
Solution: 70.8

Problem: Tell me the measured growth of `Cc1csc(-c2nnc(Nc3ccc(Oc4ncccc4-c4ccnc(N)n4)cc3)c3ccccc23)c1` , please.
Solution: 61.9

Problem: I am curious: what growth value has been reported for CC(C)C1CCC(C)C(C2(C#N)C(N)=NC(N)=C2C#N)C1=O (configuration not stated) ?
Solution: 84

Problem: Would you kindly share the measured growth for `CN1C/C=C\CCOc2cccc(c2)-c2ccnc(n2)Nc2cccc(c2)C1` ?
Solution: -98.6

Problem: Which value of growth has been reported for `CCN(CC)CCN1C(=O)c2cccc3c(-c4ccc5c(c4)ncn5C4CCCCC4)ccc(c23)C1=O` in the records?
Solution: 4.41

Problem: May I ask what growth has been recorded for `CCc1nc2cc(/C=C/C(=O)NO)ccc2c(=O)n1CCc1ccc(OC)cc1` ?
Solution: 24.1

Problem: Request the reported growth associated with O=C(c1ccccc1)C(c1ccccc1)N1CCOCC1 (configuration not stated)
Solution: 100

Problem: I'd like to know its growth. The molecule in question is `C[N+](C)(CCOC(c1ccccc1)c1ccccc1)CC(=O)OCc1ccccc1`
Solution: 76

Problem: # query: growth of entry `CCN(CCN(C)C)C(=O)CNCc1cc(C(N)=O)ccn1`
Solution: 98.6

Problem: Need growth, item `O=C(Nc1ccc(N=Nc2ccccc2)cc1)c1cccc2ccccc12`
Solution: 39.3

Problem: Would you mind telling me what growth value was observed for CO[C@H](C(=O)N[C@@H](CCCCNC(=O)OCc1ccccc1)C(=O)OC(C)(C)C)[C@@H]1Cc2cc3cc(OC4CC(OC5CC(O)C(O)C(C)O5)C(O)C(C)O4)c(C)c(O)c3c(O)c2C(=O)[C@H]1OC1CC(OC2CC(OC3CC(C)(O)C(O)C(C)O3)C(O)C(C)O2)C(O)C(C)O1 (some centres not stated) ?
Solution: -94.3

Problem: Requested field: growth. Item: `Cn1ccnc1C(=O)/C=C/c1ccc(CC(=O)Nc2ccc(S(F)(F)(F)(F)F)cc2)cc1`
Solution: 3.35

Problem: I have this molecule here, `Cn1cc(-c2ccc(F)c(C(F)(F)F)c2)nc1C1CCN(c2ncnc3[nH]ncc23)CC1` , and I need its recorded growth.
Solution: -15

Problem: Suppose we examine the molecule `N#CCNC(=O)c1ccc(-c2ccnc(Nc3ccc(N4CCOCC4)cc3)n2)cc1` ; what growth value has been reported?
Solution: -4.36

Problem: Look at this molecule and give its reported growth. `C=CC[n+]1c(/C=C/C=C2\N(C)c3ccccc3C2(C)C)sc2ccc(OC)cc21`
Solution: 20

Problem: Entry `O=[N+]([O-])c1cc(Br)cc2c1[nH]c1ccc(Br)cc12` : reported growth = ?
Solution: 19.9
